Assay text: Inhibition of human amyloid beta (1 to 42) in human SKNBE2 cells expressing wild-type amyloid precursor protein hAPP695 incubated for 18 hrs by sandwich ELISA
Outcome measure: IC50 (nM)

Consider the worked cases shown below.
{"columns": ["Compound structure string", "IC50 / nM"],
 "data": [
  ["C[C@@]1(c2cc(NC(=O)c3ccc(F)cn3)ccc2F)Cn2nc(C#N)cc2C(N)=N1", 2.6],
  ["C[C@@]1(c2cc(NC(=O)c3cnc(OCF)cn3)ccc2F)Cn2nc(C#N)cc2C(N)=N1", 1.2],
  ["C[C@@]1(c2cc(NC(=O)c3ccc(C#N)cn3)ccc2F)Cn2cc(C#N)nc2C(N)=N1", 8.5],
  ["COc1cnc(C(=O)Nc2ccc(F)c([C@]3(C)Cn4c(C#N)cnc4C(N)=N3)c2)cn1", 6.3],
  ["Cc1nc(C(=O)Nc2ccc(F)c([C@]3(C)Cn4nc(C#N)cc4C(N)=N3)c2)co1", 4.8],
  ["C[C@@]1(c2cc(NC(=O)c3ccc(F)cn3)ccc2F)Cn2c(C#N)cnc2C(N)=N1", 13]
]}

1 = C[C@@]1(c2cc(NC(=O)c3ccc(OC(F)F)cn3)ccc2F)Cn2nc(C#N)cc2C(N)=N1
2 = C[C@@]1(c2cc(NC(=O)c3ccc(Cl)cn3)ccc2F)Cn2c(C#N)cnc2C(N)=N1
Query string: When the recorded IC50 values are compared, which is smaller: that of 1 or that of 2 ? // output: label of the selected item
Result string: 1
(1: 1 nM, 2: 3.6 nM)

I = C[C@@]1(c2cc(NC(=O)c3ccc(C#N)cn3)ccc2F)Cn2nc(C#N)cc2C(N)=N1
II = C[C@@]1(c2cc(NC(=O)c3cnc(C(F)F)cn3)ccc2F)Cn2nc(C#N)cc2C(N)=N1
Query string: Consider I and II . Which of these has its IC50 at a higher number? // caller expects the label of the chosen entry
Result string: II
(II: 2.5 nM, I: 1 nM)

A = COc1cnc(C(=O)Nc2ccc(F)c([C@]3(C)Cn4nc(C#N)cc4C(N)=N3)c2)cn1
B = C[C@@]1(c2cc(NC(=O)c3ccc(C#N)cn3)ccc2F)Cn2c(C#N)cnc2C(N)=N1
Query string: Which one would you say has the larger IC50 value: A , or B ? Respond using the label that marks the chosen record.
Result string: B
